Test target: human PPARα-LBD (Homo sapiens, UniProt Q07869)
Construct: Human PPARα-LBD [amino acids (AAs) 200–468]; made in house
Sequence (Q07869 200-468): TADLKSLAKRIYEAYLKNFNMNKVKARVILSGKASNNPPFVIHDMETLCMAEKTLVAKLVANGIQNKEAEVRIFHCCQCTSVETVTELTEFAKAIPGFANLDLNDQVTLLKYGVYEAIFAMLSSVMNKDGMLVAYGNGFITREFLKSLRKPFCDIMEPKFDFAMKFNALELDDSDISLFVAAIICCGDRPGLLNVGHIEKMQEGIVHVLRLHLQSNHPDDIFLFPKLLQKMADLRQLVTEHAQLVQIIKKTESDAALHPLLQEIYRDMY
Method summary: TR-FRET coactivator recruitment assay, PPARα-LBD
Assay type: biochemical
Measurement setup: read-out: PPARα PGC1α % of GW7647 max response
Reported property: Emax (%)

Answered cases to consult:
Compound: CC(C)(Oc1ccc(C(=O)c2ccc(Cl)cc2)cc1)C(=O)O [Fenofibric acid, fenofibric acid]
Experimental result: 36.8

Compound: CSc1ccc(C(=O)/C=C/c2cc(C)c(OC(C)(C)C(=O)O)c(C)c2)cc1 [Elafibranor, elafibranor]
Experimental result: 45.6

Compound: CC[C@@H](Oc1cccc(CN(CCCOc2ccc(OC)cc2)c2nc3ccccc3o2)c1)C(=O)O [Pemafibrate, pemafibrate]
Experimental result: 74.5

Compound: O=C(O)CCCc1cc2cc(Cl)ccc2n1S(=O)(=O)c1ccc2ncsc2c1 [Lanifibranor, lanifibranor]
Experimental result: 41.8

Compound: CCc1ccc(CCOc2ccc(CC3SC(=O)NC3=O)cc2)nc1 (centres unmarked) [Pioglitazone, pioglitazone]
Experimental result: 13.9

[A] CCO[C@H](COc1ccc(C(F)(F)F)cc1)CSc1ccc(OCC(=O)O)c(C)c1 [Seladelpar, seladelpar]
[B] CCO[C@@H](Cc1ccc(OCCn2c(C)ccc2-c2ccc(SC)cc2)cc1)C(=O)O [Saroglitazar, saroglitazar]
(Q) Of A and B , which one carries the higher reported Emax? API: response body contains the label of the selected item.
(A) B
(B: 58.3%, A: 34.3%)

* * *

Test target: human PPARδ-LBD (Homo sapiens)
Construct: PPARδ-LBD (AAs 170–441); made in house
Method summary: TR-FRET coactivator recruitment assay, PPARδ-LBD
Format: biochemical
Measurement setup: PPARδ CBP EC50
Reported property: pEC50
Convention used: pEC50 is expressed as -log10 of the molar concentration.

(Q) Look up pEC50: CC(C)(Oc1ccc(CCNC(=O)c2ccc(Cl)cc2)cc1)C(=O)O [Bezafibrate, bezafibrate]
(A) 4.23

* * *

Test target: human PPARδ-LBD (Homo sapiens, UniProt Q03181)
Construct: PPARδ-LBD (AAs 170–441); made in house
Sequence (Q03181 170-441): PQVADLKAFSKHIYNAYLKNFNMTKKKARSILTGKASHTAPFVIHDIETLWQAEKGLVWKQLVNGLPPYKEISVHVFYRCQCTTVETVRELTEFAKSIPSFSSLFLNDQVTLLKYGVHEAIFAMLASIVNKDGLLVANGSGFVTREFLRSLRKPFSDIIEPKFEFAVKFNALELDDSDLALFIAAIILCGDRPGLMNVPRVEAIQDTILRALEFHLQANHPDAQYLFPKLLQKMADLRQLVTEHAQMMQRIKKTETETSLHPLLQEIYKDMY
Method summary: TR-FRET coactivator recruitment assay, PPARδ-LBD
Format: biochemical
Measurement setup: read-out: PPARδ SRC1 % of GW501516 max response
Reported property: Emax (%)

Compound: CCc1ccc(CCOc2ccc(CC3SC(=O)NC3=O)cc2)nc1 (stereo not drawn)
Experimental result: 1.19

[a] CCO[C@H](COc1ccc(C(F)(F)F)cc1)CSc1ccc(OCC(=O)O)c(C)c1
[b] CC(C)(Oc1ccc(C(=O)c2ccc(Cl)cc2)cc1)C(=O)O
(Q) Of a and b , which one carries the higher reported Emax? API: response body contains the label of the selected item.
(A) a
(a: 146%, b: 0.6%)

Source of measurements: paper PMC10967972
